# Test system: Escherichia coli TOP10
# Protocol: shrunken log2 fold change of peptide-encoding DNA abundance (4.5 h post-induction vs induction); higher = less antimicrobial activity (less host growth inhibition)
# Assay Conditions: time post-induction: 4.5 h; library: site-saturation at positions 5, 18, 19, 20
So basically: shrunken log2 fold change at 0.4 or higher? That is Y. Lower than 0.4? That is N.

Example entries begin here.
1) RRIRARPPRLPRPRPRPWYMPRP : N
2) RRIRMRPPRLPRPRPRPRKAPRP : Y
3) RRIRKRPPRLPRPRPRPAPMPRP : Y

**Query** Hi, just wondering whether `RRIRGRPPRLPRPRPRPHPMPRP` shows shrunken log2 fold change of 0.4 or higher.
**Result** Y

**Query** Hi, just wondering whether `RRIRLRPPRLPRPRPRPDQTPRP` shows shrunken log2 fold change of 0.4 or higher.
**Result** N

**Query** Hi, just wondering whether `RRIRIRPPRLPRPRPRPEQTPRP` shows shrunken log2 fold change of 0.4 or higher.
**Result** N

**Query** Hi, just wondering whether `RRIRLRPPRLPRPRPRPFKEPRP` shows shrunken log2 fold change of 0.4 or higher.
**Result** N

**Query** Hi, just wondering whether `RRIRLRPPRLPRPRPRPPLEPRP` shows shrunken log2 fold change of 0.4 or higher.
**Result** Y

**Query** Hi, just wondering whether `RRIRARPPRLPRPRPRPIEGPRP` shows shrunken log2 fold change of 0.4 or higher.
**Result** Y

**Query** Hi, just wondering whether `RRIRRRPPRLPRPRPRPWPIPRP` shows shrunken log2 fold change of 0.4 or higher.
**Result** N

**Query** Hi, just wondering whether `RRIRKRPPRLPRPRPRPRLKPRP` shows shrunken log2 fold change of 0.4 or higher.
**Result** N

====

# Test system: Escherichia coli TOP10
# Protocol: shrunken log2 fold change of peptide-encoding DNA abundance (4.5 h post-induction vs induction); higher = less antimicrobial activity (less host growth inhibition)
# Assay Conditions: time post-induction: 4.5 h; library: site-saturation at positions 5, 18, 19, 20
Reported shrunken log2 fold change maps to class as: low range = under -0.2, mid range = from -0.2 up to 0.09, high range = 0.09 and over

1) RRIRHRPPRLPRPRPRPIWTPRP : low range

**Query** Dear colleague, I would appreciate it if you could identify the bin for `RRIRPRPPRLPRPRPRPDIPPRP` and reply at your convenience.
**Result** low range

**Query** Dear colleague, I would appreciate it if you could identify the bin for `RRIRIRPPRLPRPRPRPGEDPRP` and reply at your convenience.
**Result** mid range

**Query** Dear colleague, I would appreciate it if you could identify the bin for `RRIRNRPPRLPRPRPRPSKAPRP` and reply at your convenience.
**Result** mid range

**Query** Dear colleague, I would appreciate it if you could identify the bin for `RRIRARPPRLPRPRPRPDRWPRP` and reply at your convenience.
**Result** high range

**Query** Dear colleague, I would appreciate it if you could identify the bin for `RRIRPRPPRLPRPRPRPKCQPRP` and reply at your convenience.
**Result** high range

**Query** Dear colleague, I would appreciate it if you could identify the bin for `RRIRVRPPRLPRPRPRPDQQPRP` and reply at your convenience.
**Result** mid range

**Query** Dear colleague, I would appreciate it if you could identify the bin for `RRIRIRPPRLPRPRPRPWEMPRP` and reply at your convenience.
**Result** high range

**Query** Dear colleague, I would appreciate it if you could identify the bin for `RRIRIRPPRLPRPRPRPDTQPRP` and reply at your convenience.
**Result** mid range

**Query** Dear colleague, I would appreciate it if you could identify the bin for `RRIRDRPPRLPRPRPRPHGCPRP` and reply at your convenience.
**Result** mid range

**Query** Dear colleague, I would appreciate it if you could identify the bin for `RRIRPRPPRLPRPRPRPAQNPRP` and reply at your convenience.
**Result** mid range

**Query** Dear colleague, I would appreciate it if you could identify the bin for `RRIRERPPRLPRPRPRPLYPPRP` and reply at your convenience.
**Result** low range

**Query** Dear colleague, I would appreciate it if you could identify the bin for `RRIRPRPPRLPRPRPRPGKPPRP` and reply at your convenience.
**Result** high range

**Query** Dear colleague, I would appreciate it if you could identify the bin for `RRIRPRPPRLPRPRPRPWFIPRP` and reply at your convenience.
**Result** low range

====

# Test system: Escherichia coli TOP10
# Protocol: shrunken log2 fold change of peptide-encoding DNA abundance (4.5 h post-induction vs induction); higher = less antimicrobial activity (less host growth inhibition)
# Assay Conditions: time post-induction: 4.5 h; library: site-saturation at positions 5, 18, 19, 20
Reported shrunken log2 fold change maps to class as: lo: < -0.07; mid: ≥ -0.07 and < 0.03; hi: ≥ 0.03

Example entries begin here.
1) RRIRYRPPRLPRPRPRPDWAPRP : hi
2) RRIRWRPPRLPRPRPRPSSFPRP : mid
3) RRIRHRPPRLPRPRPRPTSNPRP : lo
4) RRIRKRPPRLPRPRPRPMERPRP : mid
5) RRIRSRPPRLPRPRPRPWHSPRP : mid

**Query** Dear colleague, I would appreciate it if you could identify the bin for `RRIRQRPPRLPRPRPRPQLTPRP` and reply at your convenience.
**Result** lo

====

# System: Escherichia coli TOP10
# Protocol: shrunken log2 fold change of peptide-encoding DNA abundance (4.5 h post-induction vs induction); higher = less antimicrobial activity (less host growth inhibition)
# Assay Conditions: time post-induction: 4.5 h; library: site-saturation at positions 5, 18, 19, 20
So basically: shrunken log2 fold change at 0.04 or higher? That is criterion met. Lower than 0.04? That is criterion not met.

**Query** Hi, just wondering whether `RRIRLRPPRLPRPRPRPKTTPRP` shows shrunken log2 fold change of 0.04 or higher.
**Result** criterion met

**Query** Hi, just wondering whether `RRIRIRPPRLPRPRPRPCSAPRP` shows shrunken log2 fold change of 0.04 or higher.
**Result** criterion not met

====

# Test system: Escherichia coli TOP10
# Protocol: shrunken log2 fold change of peptide-encoding DNA abundance (4.5 h post-induction vs induction); higher = less antimicrobial activity (less host growth inhibition)
# Assay Conditions: time post-induction: 4.5 h; library: site-saturation at positions 5, 18, 19, 20
Reported shrunken log2 fold change maps to class as: group 1: < -0.2; group 2: ≥ -0.2 and < 0.2; group 3: ≥ 0.2

1. RRIRGRPPRLPRPRPRPLKEPRP : group 3
2. RRIRWRPPRLPRPRPRPFYCPRP : group 2

**Query** Dear colleague, I would appreciate it if you could identify the bin for `RRIRCRPPRLPRPRPRPHTIPRP` and reply at your convenience.
**Result** group 1

**Query** Dear colleague, I would appreciate it if you could identify the bin for `RRIRCRPPRLPRPRPRPLYRPRP` and reply at your convenience.
**Result** group 1

**Query** Dear colleague, I would appreciate it if you could identify the bin for `RRIRFRPPRLPRPRPRPLTHPRP` and reply at your convenience.
**Result** group 2

====

Quick reference for shrunken log2 fold change among some sequences
# System: Escherichia coli TOP10
# Protocol: shrunken log2 fold change of peptide-encoding DNA abundance (4.5 h post-induction vs induction); higher = less antimicrobial activity (less host growth inhibition)
# Assay Conditions: time post-induction: 4.5 h; library: site-saturation at positions 5, 18, 19, 20
I'd appreciate a reply containing only the number, no unit.

1) RRIRQRPPRLPRPRPRPVDPPRP : -0.0233
2) RRIRGRPPRLPRPRPRPMRRPRP : 1.25
3) RRIRSRPPRLPRPRPRPDLSPRP : 0.101
4) RRIRMRPPRLPRPRPRPPERPRP : 1.98
5) RRIRHRPPRLPRPRPRPPPKPRP : 0.906

**Query** Given `RRIRPRPPRLPRPRPRPNLWPRP` , report its shrunken log2 fold change on Escherichia coli TOP10.
**Result** -0.0151

**Query** Given `RRIRARPPRLPRPRPRPGASPRP` , report its shrunken log2 fold change on Escherichia coli TOP10.
**Result** 0.978

**Query** Given `RRIRARPPRLPRPRPRPPGIPRP` , report its shrunken log2 fold change on Escherichia coli TOP10.
**Result** 0.331

====

# Test system: Escherichia coli TOP10;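 note: peptides expressed intracellularly from a pBAD plasmid library in pooled LB shake-flask culture, induced with 0.3% L-arabinose, DNA abundance read by NGS, three biological replicates, DESeq2 with apeglm shrinkage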
# Protocol: shrunken log2 fold change of peptide-encoding DNA abundance (4.5 h post-induction vs induction); higher = less antimicrobial activity (less host growth inhibition)
# Assay Conditions: time post-induction: 4.5 h; library: site-saturation at positions 5, 18, 19, 20
Measurement Label: shrunken log2 fold change
I'd appreciate a reply containing only the number, no unit.

1) RRIRIRPPRLPRPRPRPALCPRP : 0.0482
2) RRIRFRPPRLPRPRPRPNPLPRP : 0.0861
3) RRIRHRPPRLPRPRPRPKSDPRP : -0.255
4) RRIRRRPPRLPRPRPRPTCTPRP : 0.165
5) RRIRKRPPRLPRPRPRPGVSPRP : 0.497

**Query** State its shrunken log2 fold change: `RRIRGRPPRLPRPRPRPHLTPRP`
**Result** 0.357

**Query** State its shrunken log2 fold change: `RRIRARPPRLPRPRPRPDECPRP`
**Result** -0.0409

**Query** State its shrunken log2 fold change: `RRIRYRPPRLPRPRPRPGCIPRP`
**Result** -0.819

**Query** State its shrunken log2 fold change: `RRIRQRPPRLPRPRPRPLMYPRP`
**Result** -0.608

**Query** State its shrunken log2 fold change: `RRIRLRPPRLPRPRPRPSLGPRP`
**Result** -0.213

**Query** State its shrunken log2 fold change: `RRIRLRPPRLPRPRPRPYDAPRP`
**Result** -0.211

**Query** State its shrunken log2 fold change: `RRIRRRPPRLPRPRPRPLLMPRP`
**Result** 0.395

**Query** State its shrunken log2 fold change: `RRIRERPPRLPRPRPRPAGDPRP`
**Result** 3.19

**Query** State its shrunken log2 fold change: `RRIRGRPPRLPRPRPRPHGEPRP`
**Result** 0.164

**Query** State its shrunken log2 fold change: `RRIRVRPPRLPRPRPRPGIGPRP`
**Result** 0.344

**Query** State its shrunken log2 fold change: `RRIRLRPPRLPRPRPRPKILPRP`
**Result** -0.143

**Query** State its shrunken log2 fold change: `RRIRCRPPRLPRPRPRPQPHPRP`
**Result** 0.067

**Query** State its shrunken log2 fold change: `RRIRFRPPRLPRPRPRPCEKPRP`
**Result** 0.00738

**Query** State its shrunken log2 fold change: `RRIRHRPPRLPRPRPRPSRPPRP`
**Result** 0.323

**Query** State its shrunken log2 fold change: `RRIRNRPPRLPRPRPRPGDTPRP`
**Result** -0.0217

**Query** State its shrunken log2 fold change: `RRIRNRPPRLPRPRPRPKYMPRP`
**Result** -0.854

**Query** State its shrunken log2 fold change: `RRIRPRPPRLPRPRPRPIGGPRP`
**Result** 0.00483

**Query** State its shrunken log2 fold change: `RRIRMRPPRLPRPRPRPLLRPRP`
**Result** 0.0923

**Query** State its shrunken log2 fold change: `RRIRPRPPRLPRPRPRPMMQPRP`
**Result** -0.369

**Query** State its shrunken log2 fold change: `RRIRFRPPRLPRPRPRPWFAPRP`
**Result** -0.582

**Query** State its shrunken log2 fold change: `RRIRIRPPRLPRPRPRPSTAPRP`
**Result** -0.263

**Query** State its shrunken log2 fold change: `RRIRSRPPRLPRPRPRPDCHPRP`
**Result** -0.0994

**Query** State its shrunken log2 fold change: `RRIRCRPPRLPRPRPRPIYIPRP`
**Result** -0.43
